Assay: Plasma stability of payloads (t½)
Where a SMILES comes first, the peptide text is derived from it. [ ]: non-standard residue; d: D form. Bip(2'-Et,4'-O(CH2)4NH2) = CCc1cc(OCCCCN)ccc1-c1ccc(C[C@H](N)C(=O)O)cc1; Nva(5-(3,5-Me2Ph)) = Cc1cc(C)cc(CCC[C@H](N)C(=O)O)c1; Ala(1H-tetrazol-5-yl) = N[C@@H](Cc1nnn[nH]1)C(=O)O; αMePhe(2-F) = C[C@](N)(Cc1ccccc1F)C(=O)O
measure-name: Plasma stability t½ (h)
Report only the number, with the unit h understood.

Query: Quick one: Plasma stability t½ for CCc1cc(OCCCCN)ccc1-c1ccc(C[C@H](NC(=O)[C@H](CC(=O)O)NC(=O)[C@H](CO)NC(=O)[C@@H](NC(=O)[C@](C)(Cc2ccccc2F)NC(=O)[C@@H](NC(=O)CNC(=O)[C@H](Cc2nn[nH]n2)NC(=O)[C@H](C)NC(=O)[C@H](Cc2c[nH]cn2)NC(=O)[C@@H](N)CCC(N)=O)[C@@H](C)O)[C@@H](C)O)C(=O)N[C@@H](CCCc2cc(C)cc(C)c2)C(N)=O)cc1 [P13] (H-QHA[Ala(1H-tetrazol-5-yl)]GT[αMePhe(2-F)]TSD[Bip(2'-Et,4'-O(CH2)4NH2)][Nva(5-(3,5-Me2Ph))]-NH2) ?
Result: 16.9

* * *

// reported S/N per item
Test system: HEK293/CRE-Luc cells
Assay: Luciferase reporter assay, HEK293/CRE-Luc cells without GLP1R (Example 17)
Type: cell-based, human
Conditions: HEK293/CRE-Luc cells without hGLP1R; payloads and linker-payloads
Where a SMILES comes first, the peptide text is derived from it. [ ]: non-standard residue; d: D form. The star is where a group is joined. Bip(2'-Et,4'-O(CH2)4NH2) = CCc1cc(OCCCCN)ccc1-c1ccc(C[C@H](N)C(=O)O)cc1; Malonyl(2,2-Me2,histaminyl) = CC(C)(C(=O)NCCc1cnc[nH]1)C(=O)*; Nva(5-(3,5-Me2Ph)) = Cc1cc(C)cc(CCC[C@H](N)C(=O)O)c1; Ala(1H-tetrazol-5-yl) = N[C@@H](Cc1nnn[nH]1)C(=O)O; αMePhe(2-F) = C[C@](N)(Cc1ccccc1F)C(=O)O; X2 = CC(C)(C(N)=O)C(=O)*
Returns: the value as a bare number; no unit string appended.

molecule: CCc1cc(OCCCCNC(=O)[C@H](CO)NC(=O)CNC(=O)CNC(=O)CNC(=O)CNC(=O)C(CO)NC(=O)CNC(=O)CNC(=O)CNC(=O)CN)ccc1-c1ccc(C[C@H](NC(=O)[C@H](CC(=O)O)NC(=O)[C@H](CO)NC(=O)[C@@H](NC(=O)[C@](C)(Cc2ccccc2F)NC(=O)[C@@H](NC(=O)CNC(=O)[C@H](Cc2nn[nH]n2)NC(=O)C(C)(C)C(=O)NCCc2cnc[nH]2)[C@@H](C)O)[C@@H](C)O)C(=O)N[C@@H](CCCc2cc(C)cc(C)c2)C(N)=O)cc1 (some centres unmarked)
system: HEK293/CRE-Luc cells
S/N: 1.4
//
molecule: CCc1cc(OCCCCN)ccc1-c1ccc(C[C@H](NC(=O)[C@H](CC(=O)O)NC(=O)[C@H](CO)NC(=O)[C@@H](NC(=O)[C@](C)(Cc2ccccc2F)NC(=O)[C@@H](NC(=O)CNC(=O)[C@H](Cc2nn[nH]n2)NC(=O)C(C)(C)C(N)=O)[C@@H](C)O)[C@@H](C)O)C(=O)N[C@@H](CCCc2cc(C)cc(C)c2)C(N)=O)cc1 [P4] (X2-[Ala(1H-tetrazol-5-yl)]GT[αMePhe(2-F)]TSD[Bip(2'-Et,4'-O(CH2)4NH2)][Nva(5-(3,5-Me2Ph))]-NH2)
system: HEK293/CRE-Luc cells
S/N: 1.6
//
molecule: CCc1cc(OCCCCn2cc(COCCOCCOCCOCCNC(=O)COC3C#CCCCCC3)nn2)ccc1-c1ccc(C[C@H](NC(=O)[C@H](CC(=O)O)NC(=O)[C@H](CO)NC(=O)[C@@H](NC(=O)[C@](C)(Cc2ccccc2F)NC(=O)[C@@H](NC(=O)CNC(=O)[C@H](Cc2nn[nH]n2)NC(=O)C(C)(C)C(=O)NCCc2cnc[nH]2)[C@@H](C)O)[C@@H](C)O)C(=O)N[C@@H](CCCc2cc(C)cc(C)c2)C(N)=O)cc1 (some centres unmarked)
system: HEK293/CRE-Luc cells
S/N: 1.1
//
molecule: CCc1cc(OCCCCN)ccc1-c1ccc(C[C@H](NC(=O)[C@H](CC(=O)O)NC(=O)[C@H](CO)NC(=O)[C@@H](NC(=O)[C@](C)(Cc2ccccc2F)NC(=O)[C@@H](NC(=O)CNC(=O)[C@H](Cc2nn[nH]n2)NC(=O)C(C)(C)C(=O)NCCc2cnc[nH]2)[C@@H](C)O)[C@@H](C)O)C(=O)N[C@@H](CCCc2cc(C)cc(C)c2)C(N)=O)cc1 [P9] ({Malonyl(2,2-Me2,histaminyl)}-[Ala(1H-tetrazol-5-yl)]GT[αMePhe(2-F)]TSD[Bip(2'-Et,4'-O(CH2)4NH2)][Nva(5-(3,5-Me2Ph))]-NH2)
system: HEK293/CRE-Luc cells
S/N: 1.3

Consider now this further molecule.
Query: Please tell me: S/N of CCc1cc(OC)ccc1-c1ccc(C[C@H](NC(=O)[C@H](CC(=O)O)NC(=O)[C@H](CO)NC(=O)C(NC(=O)[C@](C)(Cc2ccccc2F)NC(=O)[C@@H](NC(=O)CNC(=O)[C@H](Cc2nn[nH]n2)NC(=O)C(C)(C)C(=O)NCCc2cnc[nH]2)[C@@H](C)O)[C@@H](C)O)C(=O)N[C@@H](CCCc2ccc(OCCCCN)cc2)C(N)=O)cc1 (stereo in doubt) , system HEK293/CRE-Luc cells?
Result: 1.0
